Target: huPD-L1 (Homo sapiens, UniProt Q9NZQ7)
Sequence (Q9NZQ7 19-290): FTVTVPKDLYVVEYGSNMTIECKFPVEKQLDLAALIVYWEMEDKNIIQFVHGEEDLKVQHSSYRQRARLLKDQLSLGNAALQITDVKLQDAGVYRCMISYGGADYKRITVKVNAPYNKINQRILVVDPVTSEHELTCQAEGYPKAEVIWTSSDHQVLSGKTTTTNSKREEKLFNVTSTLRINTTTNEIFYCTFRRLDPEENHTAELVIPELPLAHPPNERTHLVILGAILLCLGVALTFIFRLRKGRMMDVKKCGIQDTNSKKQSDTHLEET
Experiment: Flow binding to CHO cells stably expressing PD-L1
Set-up: huCTLA4 and huPD-L1, full-length mammalian surface expression constructs were generated; expressed in transfected cells; host or cells: CHO cells, lentiviral transduction, sorted to >98% purity
Details: Table E23; MFI at 33.3 nM relative to CD80 WT IgV-Fc
Measurement Name: PD-L1 Fold change to WT CD80

H18C/A26P/E35D/M47L/V68M/A71G (protein, UniProt P33681 35-288, looked up, variant H18C A26P E35D M47L V68M A71G) T-lymphocyte activation …: VIHVTKEVKEVATLSCGCNVSVEELPQTRIYWQKDKKMVLTMMSGDLNIWPEYKNRTIFDITNNLSIMILGLRPSDEGTYECVVLKYEKDAFKREHLAEVTLSVKADFPTPSISDFEIPTSNIRRIICSTSGGFPEPHLSWLENGEELNAINTTVSQDPETELYAVSSKLDFNMTTNHSFMCLIKYGHLRVNQTFNWNTTKQEHFPDNLLPSWAITLISVNGIFVICCLTYCFAPRCRERRRNERLRRESVRPV : 406.1
